Sourced from ChEMBL document CHEMBL3988442

Kindly supply the reported Percent Effect values for the records listed here.
- Target Under Test: AMP-activated protein kinase, AMPK (Homo sapiens) (UniProt P54646+O43741+P54619+Q9UGJ0+Q9Y478+Q13131+Q9UGI9)
- Experimental Details: AMP-dependent Kinase enzyme assay. An in vitro enzyme assay that detects ADP turnover that is directly proportional to AMPK activity. This uses naive AMPK that is activated during the assay with MK-8722
- Assay type: functional
- Parameters: scale not given: direction of the effect not stated beside the values
- Condition Info: 30 µM
Give the number; % is assumed, so skip it.

Prompt: Name the reported Percent Effect value associated with the molecule `Cc1cnn(CCNCc2cccnc2)c1`
Response: 6.23

Prompt: Quick one: O=C(CCCOc1ccc(F)cc1)N1CCCC(n2cccn2)C1 (stereo unspecified)
Response: 4.56

Prompt: Quick one: COc1ccc2cc(C(=O)N3CCCCC3CC(N)=O)[nH]c2c1 (stereo unspecified)
Response: 7.25

Prompt: Quick one: `O=C1COc2cc(C(=O)NS(=O)(=O)c3ccccc3F)ccc2N1`
Response: 3.61

Prompt: Quick one: `Cc1ncnc2c1CCN(c1cc(C(F)(F)F)ncn1)CC2`
Response: -0.456

Prompt: Quick one: COc1cccc2c1ccn2CCC(=O)N1CCCC(C(=O)O)C1 (stereo unspecified)
Response: -2.19

* * *

- Target Under Test: Tyrosyl-tRNA synthetase, putative (Trypanosoma cruzi (strain CL Brener)) (UniProt Q4DSP6)
- Sequence (whole entry): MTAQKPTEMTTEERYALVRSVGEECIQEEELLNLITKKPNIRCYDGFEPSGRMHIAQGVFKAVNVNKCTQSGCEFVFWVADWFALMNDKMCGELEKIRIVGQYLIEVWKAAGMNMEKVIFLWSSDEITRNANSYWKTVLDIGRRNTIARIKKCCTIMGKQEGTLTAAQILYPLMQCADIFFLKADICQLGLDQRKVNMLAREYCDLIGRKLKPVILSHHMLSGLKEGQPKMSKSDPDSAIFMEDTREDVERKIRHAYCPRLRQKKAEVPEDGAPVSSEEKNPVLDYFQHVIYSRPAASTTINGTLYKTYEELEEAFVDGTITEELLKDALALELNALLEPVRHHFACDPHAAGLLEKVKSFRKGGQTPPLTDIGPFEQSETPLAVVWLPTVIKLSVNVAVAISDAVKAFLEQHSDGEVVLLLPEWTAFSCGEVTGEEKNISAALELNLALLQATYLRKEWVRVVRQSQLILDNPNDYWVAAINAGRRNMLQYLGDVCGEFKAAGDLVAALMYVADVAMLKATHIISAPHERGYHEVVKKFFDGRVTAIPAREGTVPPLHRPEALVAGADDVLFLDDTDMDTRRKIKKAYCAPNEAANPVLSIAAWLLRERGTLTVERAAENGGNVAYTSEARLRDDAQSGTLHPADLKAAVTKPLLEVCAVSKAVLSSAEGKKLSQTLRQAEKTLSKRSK
- Experimental Details: Trypanosoma cruzi tyrosyl tRNA synthetase (TcYRS) _High Tyrosine SOP; further: in the data most compounds retested in dose-response had high values
- Format: functional
- Parameters: scale not given: direction of the effect not stated beside the values
- Condition Info: 30 µM
Endpoint: Percent Effect (%)
Give the number; % is assumed, so skip it.

Prompt: Name the reported Percent Effect value associated with the compound O=C(c1cnc(C2CC2)s1)N1CCCC(n2cccn2)C1 (stereo unspecified)
Response: 6.4

Prompt: Quick one: O=C(NCC(F)(F)F)C1CSCN1S(=O)(=O)c1ccc(F)cc1 (stereo unspecified)
Response: 13.5

Prompt: Quick one: `CC(C)c1ncncc1C(=O)N1CCN(Cc2cscn2)CC1`
Response: 6.93

Prompt: Quick one: `COCc1nn(C(C)C)c2c1CCN(Cc1ccc(C)s1)C2`
Response: 2.08

Prompt: Quick one: COc1ccc(-n2ccc(C(=O)N3CCC(C(N)=O)C3)n2)cc1 (stereo unspecified)
Response: 2.97

Prompt: Quick one: `COc1cccc(CN(C)S(=O)(=O)N2CCOCC2)c1`
Response: 5.32

Prompt: Quick one: `CC(=O)N1CCN([C@@H]2CC[C@@H](NC(=O)c3cncc(C)c3)[C@H]2O)CC1`
Response: -2.15

Prompt: Quick one: CCc1nccn1C1CCCN(C(=O)c2cc3nc(C)ccc3o2)C1 (stereo unspecified)
Response: 3.45

Prompt: Quick one: `CCCS(=O)(=O)N1CCC(NC(=O)c2cc(C)c(CC)s2)CC1`
Response: 6.01

Prompt: Quick one: CS(=O)(=O)Cc1cccc(C(=O)NCC2Cc3ccccc3O2)c1 (stereo unspecified)
Response: 2.15

Prompt: Quick one: `CCOC(=O)CNC(=O)N1CCN(c2ncccn2)CC1`
Response: 5.38
